Assign IC50 to each entry below.
Target: p38 MAPKα isoform (MAPK14) (Homo sapiens (Human))
Sequence (Q16539 whole entry, canonical isoform): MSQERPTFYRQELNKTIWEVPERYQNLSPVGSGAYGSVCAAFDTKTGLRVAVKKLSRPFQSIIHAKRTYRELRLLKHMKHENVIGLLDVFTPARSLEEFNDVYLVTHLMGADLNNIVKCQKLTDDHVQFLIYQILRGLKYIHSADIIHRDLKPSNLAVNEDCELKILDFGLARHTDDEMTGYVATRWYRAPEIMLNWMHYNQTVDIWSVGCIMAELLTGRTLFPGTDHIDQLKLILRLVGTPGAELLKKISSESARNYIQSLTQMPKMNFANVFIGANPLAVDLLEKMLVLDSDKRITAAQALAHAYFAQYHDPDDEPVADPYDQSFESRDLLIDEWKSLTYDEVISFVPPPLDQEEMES
Test: p38 MAPKα enzyme inhibition (FRET, Z-LYTE), Method 2
Assay type: biochemical
Conditions: Method 2, different laboratory (Table 4a2)
Method: The enzyme inhibitory activities of compounds disclosed herein are determined by FRET using synthetic peptides labelled with both donor and acceptor fluorophores (Z-LYTE, Invitrogen Ltd., Paisley, UK). The inhibitory activities of test compounds against the p38 MAPKα isoform (MAPK14: Invitrogen), are evaluated indirectly by determining the level of activation/phosphorylation of the down-stream molecule, MAPKAP-K2. […]
Numbers only, in µM.

These recorded examples may help you get a feel for the data.
COMPOUND	IC50, µM
COc1ccc(-n2nc(C(C)C)cc2NC(=O)Nc2ccc(Oc3ccnc(Nc4cc(OC)cc(C(=O)NCCN5CCOCC5)c4)n3)c3ccccc23)cc1 [Example 53]	0.037
C#Cc1cc(Nc2nccc(Oc3ccc(NC(=O)Nc4cc(C(C)(C)C)nn4-c4ccc(OC)cc4)c4ccccc34)n2)cc(C(=O)NCCOC)c1 [Example 84]	0.105
C#Cc1cc(Nc2nccc(Oc3ccc(NC(=O)Nc4cc(C(C)(C)C(F)(F)F)nn4-c4ccc(C)cc4)c4ccccc34)n2)cc(C(=O)NCCN2CCOCC2)c1 [Example 76]	0.233
C#Cc1cc(Nc2nccc(Oc3ccc(NC(=O)Nc4cc(C(C)C)nn4-c4ccc(C)cc4)c(Cl)c3Cl)n2)cc(C(=O)NCCN2CCOCC2)c1 [Example 87]	0.408
C#Cc1cc(Nc2nccc(Oc3ccc(NC(=O)Nc4cc(C(C)(C)C)nn4-c4ccc(OC)cc4)c4ccccc34)n2)cc(C(=O)NCCN2CCOCC2)c1 [Example 77]	0.022
C#Cc1cc(Nc2nccc(Oc3ccc(NC(=O)Nc4cc(C(C)(C)C)nn4-c4ccc(OC)cc4)c4ccccc34)n2)cc(C(=O)N[C@@H](C)COC)c1 [Example 85]	0.158
COc1cc(Nc2nccc(Oc3ccc(NC(=O)Nc4cc(C(F)(F)C(F)(F)F)nn4-c4ccc(C)cc4)c4ccccc34)n2)cc(C(=O)NCCN2CCOCC2)c1 [Example 9]	0.174

Below: the item to evaluate.
// lookup IC50 | system=p38 MAPKα isoform (MAPK14) (Homo sapiens (Human)) | key= C#Cc1cc(Nc2nccc(Oc3ccc(NC(=O)Nc4cc(C(C)(C)C)nn4-c4ccc(C)cc4)c4ccccc34)n2)cc(C(=O)N[C@H](C)CN2CCOCC2)c1 [Example 83]
0.261
